# testSystem: CB2 receptor (Homo sapiens)
# Sequence (P34972 whole entry): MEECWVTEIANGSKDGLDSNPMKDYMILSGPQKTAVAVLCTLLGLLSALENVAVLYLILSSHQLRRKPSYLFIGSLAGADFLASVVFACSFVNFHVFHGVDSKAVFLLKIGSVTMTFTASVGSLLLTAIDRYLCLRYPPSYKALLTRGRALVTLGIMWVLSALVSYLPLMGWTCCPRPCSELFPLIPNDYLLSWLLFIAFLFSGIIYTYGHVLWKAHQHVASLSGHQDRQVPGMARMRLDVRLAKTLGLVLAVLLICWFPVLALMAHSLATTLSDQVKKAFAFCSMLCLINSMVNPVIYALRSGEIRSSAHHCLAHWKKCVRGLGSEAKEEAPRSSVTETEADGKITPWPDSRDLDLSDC
# methodSummary: CB2 competitive radioligand binding assay ([3H] WIN-55,212-2)
# Parameters: expressed in transfected cells; host or cells: CHO-K1 cells
# statedConditions: 0.05 μM compound, 2.4 nM [3H] WIN-55,212-2, 90 min 37° C.
measuredEndpoint: inhibition at 0.05 µM (%)

CCCCCCC(C)(C)c1cc(O)c2c(c1)OC(C)(C)[C@@H]1CC=C(C(=O)NC(C)(C)CC(=O)O)C[C@@H]21: 7
CCCCCCC(C)(C)c1cc(O)c2c(c1)OC(C)(C)c1ccc(C(=O)O)cc1-2: 20
CCCCCCC(C)(C)c1cc(O)c2c(c1)OC(C)(C)[C@@H]1CC=C(C(=O)NC(CO)CO)C[C@@H]21: 36
CCCCCCC(C)(C)c1cc(O)c2c(c1)OC(C)(C)[C@@H]1CC=C(C(=O)NC3CC3)C[C@@H]21: 98

----------
# testSystem: CB1 receptor (Homo sapiens, UniProt P21554)
# Sequence (P21554 whole entry): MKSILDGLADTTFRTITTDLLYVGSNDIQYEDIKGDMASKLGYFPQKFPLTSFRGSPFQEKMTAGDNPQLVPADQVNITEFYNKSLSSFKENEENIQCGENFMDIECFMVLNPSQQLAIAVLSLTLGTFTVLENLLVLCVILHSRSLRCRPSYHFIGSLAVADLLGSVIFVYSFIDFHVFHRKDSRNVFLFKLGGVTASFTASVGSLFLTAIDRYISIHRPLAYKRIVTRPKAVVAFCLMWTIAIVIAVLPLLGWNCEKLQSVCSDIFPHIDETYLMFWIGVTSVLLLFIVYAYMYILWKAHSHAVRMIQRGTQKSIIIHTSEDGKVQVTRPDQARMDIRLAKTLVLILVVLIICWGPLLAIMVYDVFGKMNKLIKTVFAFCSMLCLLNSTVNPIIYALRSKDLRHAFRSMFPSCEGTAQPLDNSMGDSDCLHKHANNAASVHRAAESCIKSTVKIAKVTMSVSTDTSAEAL
# methodSummary: CB1 competitive radioligand binding assay ([3H] SR141716A)
# Set-up: expressed in transfected cells; host or cells: Chem-1 cells
# statedConditions: 0.5 μM compound, 2.0 nM [3H] SR141716A, 90 min 37° C.
The reader will find reported inhibition at 0.5 µM values listed item by item below.
measuredEndpoint: inhibition at 0.5 µM (%)

CCCCCCC(C)(C)c1cc(O)c2c(c1)OC(C)(C)[C@@H]1CC=C(C(=O)N[C@H](Cc3ccc(O)cc3)C(=O)O)C[C@@H]21 [Compound 3]: 13
CCCCCCC(C)(C)c1cc(O)c2c(c1)OC(C)(C)[C@@H]1CC=C(C(=O)N[C@H](C)CCO)C[C@@H]21 [Compound 14]: 25
CCCCCCC(C)(C)c1cc(O)c2c(c1)OC(C)(C)[C@@H]1CC=C(C(=O)OC)C[C@@H]21 [Compound 28]: 74
CCCCCCC(C)(C)c1cc(O)c2c(c1)OC(C)(C)[C@@H]1CC=C(C(=O)O)C[C@@H]21 [AJA, reference compound]: -1
CCCCCCC(C)(C)c1cc(O)c2c(c1)OC(C)(C)[C@@H]1CC=C(C(=O)NC3CCCCC3)C[C@@H]21 [Compound 16]: 84
CCCCCCC(C)(C)c1cc(O)c2c(c1)OC(C)(C)c1ccc(C(=O)O)cc1-2 [Compound 31]: 12
CCCCCCC(C)(C)c1cc(O)c2c(c1)OC(C)(C)[C@@H]1CC=C(C(=O)Oc3ccc(C(N)=S)cc3)C[C@@H]21 [Compound 10]: 7

----------
# testSystem: CB2 receptor (Homo sapiens)
# methodSummary: cAMP Assay #2: Hit Hunter cAMP assay, Gi-coupled agonist activity, CB2
# Assay type: cell-based
# Design: host or cells: cAMP Hunter cell lines
# statedConditions: Hit Hunter cAMP, 25 μM forskolin, control ligand CP55,940; read-out: CB2, EC50
pEC50: −log10 of the molar value.
measuredEndpoint: pEC50

CCCCCCC(C)(C)c1cc(O)c2c(c1)OC(C)(C)[C@@H]1CC=C(C(=O)NC[C@@H](O)CO)C[C@@H]21: 8.24
CCCCCCC(C)(C)c1cc(O)c2c(c1)OC(C)(C)[C@@H]1CC=C(C(=O)NC(CO)CO)C[C@@H]21: 8.05
CCCCCCC(C)(C)c1cc(O)c2c(c1)OC(C)(C)[C@@H]1CC=C(C(=O)NOCCO)C[C@@H]21: 8.82
CCCCCCC(C)(C)c1cc(O)c2c(c1)OC(C)(C)[C@@H]1CC=C(C(=O)NCCCO)C[C@@H]21: 8.60
CCCCCCC(C)(C)c1cc(O)c2c(c1)OC(C)(C)[C@@H]1CC=C(C(=O)NC[C@H](O)CO)C[C@@H]21: 8.08
CCCCCCC(C)(C)c1cc(O)c2c(c1)OC(C)(C)[C@@H]1CC=C(C(=O)NC(C)(C)CCO)C[C@@H]21: 8.57
CCCCCCC(C)(C)c1cc(O)c2c(c1)OC(C)(C)[C@@H]1CC=C(C(=O)NCC(O)CO)C[C@@H]21 (stereo partly drawn): 8.46
CCCCCCC(C)(C)c1cc(O)c2c(c1)OC(C)(C)[C@@H]1CC=C(C(=O)NC3CCCCC3)C[C@@H]21: 8.57
CCCCCCC(C)(C)c1cc(O)c2c(c1)OC(C)(C)[C@@H]1CC=C(C(=O)N[C@H](C)CCO)C[C@@H]21: 8.39
